// data source = PubChem BioAssay (NCI)

Tested on: HCT-116 colon
Experiment: NCI tumour cell line growth inhibition, 48 h
Below is a list of entries, each paired with its recorded GI50 value.

# count of solved cases: 2
Nc1c(C(=O)Nc2cccc(Br)c2)sc2nc3c(cc12)C(=O)CCC3 : 0.534 µM
O=c1cc2oc3cc(O)c(O)cc3c(-c3ccccc3O)c-2cc1O : 3.81 µM

Next compound, GI50 to be filled in.
Request: Query (compound): C=CCCCCCCCCCCC1(O)C=CC2=[N+](CCCCCN=C(N)N)CCCN21 (stereo not drawn) ; field requested: GI50
Result: 12.4 µM

====

// reported TGI per item
Tested on: HCT-116 colon
Assay: NCI tumour cell line growth inhibition, 48 h
Expressed in µM, but write only the number.

Answered cases to consult:
COc1ccc(N2C(=O)CS(=O)(=O)C2c2cccc(Oc3ccccc3)c2)cc1 (centres undefined) : 5.88
O=C(NCCCN(CCCCN(CCCNC(=O)C(F)(F)F)CCCc1ccccc1)CCCc1ccccc1)C(F)(F)F : 5.9

Continue with the next compound.
Request: Reported TGI for HCT-116 colon, given "CC(/C=N\NC(=S)N1CCCCC1)=N/NC(=S)N1CCCCC1" ?
Result: 6.19
